Where do the numbers come from? From ChEMBL document CHEMBL2448688.

Examples of molecules with documented inhibition at 10 µM follow.
Molecular target: CYP3A4 (Homo sapiens, UniProt P08684)
Sequence (P08684 whole entry): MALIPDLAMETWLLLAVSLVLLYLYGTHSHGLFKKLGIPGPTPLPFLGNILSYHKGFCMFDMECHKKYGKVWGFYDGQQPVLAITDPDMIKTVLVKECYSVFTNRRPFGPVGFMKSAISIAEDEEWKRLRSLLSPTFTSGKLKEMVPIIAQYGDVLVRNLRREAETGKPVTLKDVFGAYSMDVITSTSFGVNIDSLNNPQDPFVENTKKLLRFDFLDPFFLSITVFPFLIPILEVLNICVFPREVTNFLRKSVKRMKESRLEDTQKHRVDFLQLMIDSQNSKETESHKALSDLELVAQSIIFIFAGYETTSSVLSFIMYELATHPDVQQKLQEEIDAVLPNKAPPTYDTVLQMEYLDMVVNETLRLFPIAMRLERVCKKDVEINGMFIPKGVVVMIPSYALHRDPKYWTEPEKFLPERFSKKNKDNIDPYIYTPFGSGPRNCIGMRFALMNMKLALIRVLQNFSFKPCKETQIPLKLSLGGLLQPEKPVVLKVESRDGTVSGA
Experiment: DNDI: Human CYP3A4 inhibition at 10 uM determined using 6b-hydroxylation of testosterone
Conditions: probe testosterone (6b-hydroxylation)
A complete answer gives the number and then names the unit.

// returns reported inhibition at 10 µM for input `O=C(Nc1ccccc1-n1ccnc1)c1cnc(-c2ccccc2)nc1`
27%

Could you share which inhibition at 10 µM value was measured for `Cc1ccc(-n2ccnc2)c(NC(=O)c2cnc(-c3ccccc3)nc2)c1` ?
49%

Given the entry `CO/N=C(\C)c1ccc(-n2ccnc2)c(NC(=O)c2cncc(-c3ccccc3)n2)c1` , report its measured inhibition at 10 µM.
91.9%

Look up inhibition at 10 µM for this molecule: `CC(=O)N(Cc1c[nH]cn1)c1ccc(-c2nc3ccccc3s2)cc1`
28.1%
